Data credit: the supplement of paper PMC9732359

# testName: protein stability index of a GFP-peptide fusion (yeast GPS) (PSI 1-4); higher = more stable; sorted into four equal gates, so the index is relative within each strain
# assaySetup: pdr5∆
Output yes (1) for protein stability index not less than 2; output no (0) otherwise.

| chainSequence | categoryLabel |
| --- | --- |
| IRIYDLGKKKATVDEFP [RPL10] | no (0) |

Say whether KEQADIYAKQQEQLKQM [ARP7] shows protein stability index of 2 or more.
yes (1)

Repeat with PSTKVASSAVMNRRKIA [YLR335W/NUP2]
no (0)

Repeat with KKKRFEIKKWTAVAFWS [HRT1]
no (0)
